Target: rh integrin α4β7 (Homo sapiens, UniProt P13612+P26010)
Construct: purchased R&D Systems 5397-A30
Sequence (P13612 34-977 limits assumed): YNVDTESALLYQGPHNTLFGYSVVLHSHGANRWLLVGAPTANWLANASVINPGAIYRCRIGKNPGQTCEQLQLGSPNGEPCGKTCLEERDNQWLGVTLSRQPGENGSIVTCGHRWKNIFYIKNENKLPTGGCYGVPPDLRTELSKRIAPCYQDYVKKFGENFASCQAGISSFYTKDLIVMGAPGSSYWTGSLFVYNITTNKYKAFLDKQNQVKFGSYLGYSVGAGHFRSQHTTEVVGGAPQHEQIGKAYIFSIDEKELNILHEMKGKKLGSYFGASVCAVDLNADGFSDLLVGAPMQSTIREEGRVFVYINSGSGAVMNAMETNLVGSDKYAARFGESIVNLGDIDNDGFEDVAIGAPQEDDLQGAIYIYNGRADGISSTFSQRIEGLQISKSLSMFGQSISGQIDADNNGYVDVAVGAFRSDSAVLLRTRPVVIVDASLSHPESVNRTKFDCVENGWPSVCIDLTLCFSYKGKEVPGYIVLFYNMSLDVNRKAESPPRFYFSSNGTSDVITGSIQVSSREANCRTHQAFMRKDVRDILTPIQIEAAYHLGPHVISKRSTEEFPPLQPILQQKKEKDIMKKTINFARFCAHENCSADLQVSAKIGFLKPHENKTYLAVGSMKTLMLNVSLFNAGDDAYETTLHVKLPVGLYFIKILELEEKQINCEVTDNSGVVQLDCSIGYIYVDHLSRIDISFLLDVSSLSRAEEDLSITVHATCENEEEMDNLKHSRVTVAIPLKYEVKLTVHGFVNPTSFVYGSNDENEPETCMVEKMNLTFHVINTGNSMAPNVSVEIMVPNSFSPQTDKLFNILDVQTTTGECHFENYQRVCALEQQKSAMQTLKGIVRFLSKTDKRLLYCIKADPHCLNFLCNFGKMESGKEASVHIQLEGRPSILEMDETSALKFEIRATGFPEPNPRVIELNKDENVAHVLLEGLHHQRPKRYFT
Sequence (P26010 20-723 limits assumed): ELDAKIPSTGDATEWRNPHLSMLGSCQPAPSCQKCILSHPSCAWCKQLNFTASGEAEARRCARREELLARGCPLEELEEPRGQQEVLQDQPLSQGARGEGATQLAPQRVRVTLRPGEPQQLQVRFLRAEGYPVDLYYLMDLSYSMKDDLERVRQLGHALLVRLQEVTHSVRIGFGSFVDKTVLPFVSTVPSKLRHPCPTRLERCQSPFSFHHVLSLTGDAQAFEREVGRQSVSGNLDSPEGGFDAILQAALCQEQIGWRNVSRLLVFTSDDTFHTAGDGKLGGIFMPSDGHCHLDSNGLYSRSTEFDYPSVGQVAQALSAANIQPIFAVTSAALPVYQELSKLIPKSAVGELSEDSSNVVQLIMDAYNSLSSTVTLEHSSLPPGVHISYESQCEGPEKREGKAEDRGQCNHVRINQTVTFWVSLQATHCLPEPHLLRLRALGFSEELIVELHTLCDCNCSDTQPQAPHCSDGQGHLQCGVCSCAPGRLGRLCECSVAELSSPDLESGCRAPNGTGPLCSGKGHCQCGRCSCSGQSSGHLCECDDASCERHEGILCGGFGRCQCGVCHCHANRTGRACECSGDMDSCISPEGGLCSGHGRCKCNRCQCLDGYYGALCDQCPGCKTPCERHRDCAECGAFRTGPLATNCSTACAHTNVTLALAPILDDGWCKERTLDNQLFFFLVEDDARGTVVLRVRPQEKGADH
Assay: α4β7-MAdCAM Competition ELISA
Format: binding
Conditions: thioether monomer peptides, Table 6; read-out: ELISA A4B7
Where a SMILES comes first, the peptide text is derived from it.
Each entry below carries its reported IC50.

MOLECULE	IC50
CC(C)C[C@@H]1NC(=O)[C@H]([C@@H](C)O)NC(=O)[C@H](CC(=O)O)NC(=O)[C@H](CO)NC(=O)[C@H](CCCNC(=N)N)N(C)C(=O)c2ccccc2CSC(C)(C)[C@@H](C(=O)N[C@@H](Cc2c[nH]c3ccccc23)C(=O)N[C@H](CCC(=O)O)C(=O)N[C@@H](CCC(N)=O)C(N)=O)NC1=O [compound 103] (HELM PEPTIDE1{[meR].S.D.T.L.[Pen].W.[dE].Q.[am]}|CHEM1{[O=C(c1ccccc1C[*:2])[*:1]]}$PEPTIDE1,CHEM1,1:R1-1:R1|PEPTIDE1,CHEM1,6:R3-1:R2$$$V2.0)	< 25 nM

# IC50 of CC(C)C[C@@H]1NC(=O)[C@H]([C@@H](C)O)NC(=O)[C@H](CC(=O)O)NC(=O)[C@H](CO)NC(=O)[C@H](CCCNC(=N)N)N(C)C(=O)c2ccccc2CSC[C@@H](C(=O)N[C@@H](Cc2c[nH]c3ccccc23)C(=O)N[C@@H](CCC(=O)O)C(=O)N[C@H](CCCCN)C(N)=O)NC1=O [compound 55] (HELM PEPTIDE1{[meR].S.D.T.L.C.W.E.[dK].[am]}|CHEM1{[O=C(c1ccccc1C[*:2])[*:1]]}$PEPTIDE1,CHEM1,1:R1-1:R1|PEPTIDE1,CHEM1,6:R3-1:R2$$$V2.0) = < 25 nM

IC50 in this record for `CC(C)C[C@@H]1NC(=O)[C@H]([C@@H](C)O)NC(=O)[C@H](CC(=O)O)NC(=O)[C@H](CO)NC(=O)[C@H](CCCNC(=N)N)N(C)C(=O)CSC(C)(C)[C@@H](C(=O)N[C@@H](Cc2c[nH]c3ccccc23)C(=O)N[C@H](CCCCN)C(N)=O)NC1=O` : 100 to 1000 nM

---

Assay: Simulated Intestinal Fluid (SIF) Stability Assay
Type: in vitro ADME
Conditions: simulated gi fluid, porcine pancreatin, 37° C.; monomers, Table 6
Protocol: Simulated Intestinal Fluid (SIF) Stability Assay Studies were carried out in simulated intestinal fluid (SIF) to evaluate intestinal stability of the peptide molecules of the instant invention. […] The quenched samples were centrifuged at 10,000 rpm for 10 minutes, and the supernatants were analyzed by LCMS/MS. The percent remaining at each time point was calculated based on the peak area response ratio of test to compound to internal standard. […]
Where a SMILES comes first, the peptide text is derived from it.
ASSAY READOUT: half-life (h)
Give just the number in h; leave the unit off.

Query CC(C)C[C@@H]1NC(=O)[C@H]([C@@H](C)O)NC(=O)[C@H](CC(=O)O)NC(=O)[C@H](CO)NC(=O)[C@H](CCCNC(=N)N)N(C)C(=O)c2ccccc2CSC(C)(C)[C@@H](C(=O)N[C@@H](Cc2c[nH]c3ccccc23)C(=O)N[C@@H](CCC(=O)O)C(=O)N[C@H](CCCCN)C(N)=O)NC1=O [compound 56] (HELM PEPTIDE1{[meR].S.D.T.L.[Pen].W.E.[dK].[am]}|CHEM1{[O=C(c1ccccc1C[*:2])[*:1]]}$PEPTIDE1,CHEM1,1:R1-1:R1|PEPTIDE1,CHEM1,6:R3-1:R2$$$V2.0) yields half-life of 3.1
